- measurementTarget: full-length beta-Catenin (Uniprot ID P35222) (Homo sapiens)
- Construct: 10 nM full-length beta-Catenin (Uniprot ID P35222)
- test: Fluorescence polarization IC50 (beta-catenin / 5FAM-TCF4 10-53 competition)
- Type: binding
- testContext: fluorescence polarization; read-out: beta-Catenin FP IC50
recordedMetric: IC50 (nM)

[
  {
    "compound": "CC(=O)N1CCC[C@]12CC=CCCCC1(CCCC=CCCCOC(=O)N3CC[C@@](C(=O)N[C@@H](Cc4ccccc4C(F)(F)F)C(=O)N[C@@H](Cc4csc5cccc(Cl)c45)C(=O)N[C@@H](CCC(N)=O)C(N)=O)(C3)NC(=O)[C@H](CC(C)C)NC(=O)[C@H](Cc3ccccc3)NC(=O)[C@H](C)NC(=O)[C@H](C)NC(=O)[C@H](Cc3cccc(C(=O)O)c3)NC(=O)[C@H](CC(=O)O)NC1=O)NC(=O)[C@H](CC(C)(C)C)NC(=O)[C@H](CC(=O)O)NC2=O (stereo partly shown)",
    "measurementTarget": "full-length beta-Catenin (Uniprot ID P35222) (Homo sapiens)",
    "reportedValue": 39
  }
]

----------
- measurementTarget: full-length beta-Catenin (Uniprot ID P35222) (Homo sapiens)
- Construct: 10 nM full-length beta-Catenin (Uniprot ID P35222)
- Sequence (P35222 1-781): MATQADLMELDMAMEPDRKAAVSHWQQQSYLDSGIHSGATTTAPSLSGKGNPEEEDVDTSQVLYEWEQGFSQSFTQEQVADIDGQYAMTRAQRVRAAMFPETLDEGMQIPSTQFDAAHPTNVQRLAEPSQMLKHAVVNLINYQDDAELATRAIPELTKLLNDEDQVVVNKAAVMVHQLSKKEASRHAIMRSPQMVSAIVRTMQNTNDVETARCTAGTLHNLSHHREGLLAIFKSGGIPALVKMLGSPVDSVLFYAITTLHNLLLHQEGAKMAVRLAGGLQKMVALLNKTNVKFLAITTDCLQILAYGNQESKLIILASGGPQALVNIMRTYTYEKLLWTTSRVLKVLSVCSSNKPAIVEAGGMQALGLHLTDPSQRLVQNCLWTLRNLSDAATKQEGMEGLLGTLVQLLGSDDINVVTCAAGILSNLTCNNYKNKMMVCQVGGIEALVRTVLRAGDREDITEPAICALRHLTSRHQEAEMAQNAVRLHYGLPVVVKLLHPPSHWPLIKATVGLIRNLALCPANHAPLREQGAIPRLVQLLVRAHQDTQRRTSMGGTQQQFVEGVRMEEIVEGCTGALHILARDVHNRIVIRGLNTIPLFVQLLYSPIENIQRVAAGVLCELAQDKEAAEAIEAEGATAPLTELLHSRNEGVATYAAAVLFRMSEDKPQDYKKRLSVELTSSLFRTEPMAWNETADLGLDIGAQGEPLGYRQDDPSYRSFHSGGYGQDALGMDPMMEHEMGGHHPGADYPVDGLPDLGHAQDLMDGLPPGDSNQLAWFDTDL
- test: Fluorescence polarization IC50 (beta-catenin / 5FAM-TCF4 10-53 competition)
- Type: binding
- testContext: fluorescence polarization; read-out: beta-Catenin FP IC50
recordedMetric: IC50 (nM)

[
  {
    "molecule": "CC(=O)N1CCC[C@]12CC=CCCCC1(CCCC=CCCCOC(=O)N3CC[C@@](C(=O)N[C@@H](Cc4ccsc4)C(=O)N[C@@H](Cc4csc5ccccc45)C(=O)N[C@@H](CCC(N)=O)C(N)=O)(C3)NC(=O)[C@H](CC(C)C)NC(=O)[C@H](Cc3ccccc3)NC(=O)[C@H](C)NC(=O)[C@H](C)NC(=O)[C@H](CCN(CC(=O)O)Cc3ccccc3)NC(=O)[C@H](CC(=O)O)NC1=O)NC(=O)[C@H](CC(C)(C)C)NC(=O)[C@H](CC(=O)O)NC2=O (some centres unmarked) [I-1834]",
    "endpointUnit": "nM",
    "reportedValue": 35
  },
  {
    "molecule": "COCCN(CCOC)C(=O)CC[C@@H]1NC(=O)[C@H](Cc2cccc(C(=O)O)c2)NC(=O)[C@H](CC(=O)O)NC(=O)C2(CCCC=CCCCOC(=O)N3CC[C@@](C(=O)N[C@@H](Cc4ccccc4C(F)(F)F)C(=O)N[C@@H](Cc4csc5ccccc45)C(=O)N[C@@H](C)C(N)=O)(C3)NC(=O)[C@H](CC(C)C)NC(=O)[C@H](Cc3ccccc3)NC(=O)[C@H](C)NC1=O)CCCC=CC[C@]1(CCCN1C(C)=O)C(=O)N[C@@H](CC(=O)O)C(=O)N[C@@H](CC(C)(C)C)C(=O)N2 (some centres unmarked) [I-2322]",
    "endpointUnit": "nM",
    "reportedValue": 7
  },
  {
    "molecule": "CC(=O)N1CCC[C@]12CC=CCCCC1(CCCC=CCCCCCC[C@@](C)(C(=O)N[C@@H](Cc3ccsc3)C(=O)N[C@@H](Cc3csc4ccccc34)C(=O)N[C@@H](Cc3c[nH]cn3)C(N)=O)NC(=O)[C@H](CC(N)=O)NC(=O)[C@H](Cc3ccccc3)NC(=O)[C@H](C)NC(=O)[C@H](C)NC(=O)[C@H](CN(CC(=O)O)CC(F)(F)F)NC(=O)[C@H](CC(=O)O)NC1=O)NC(=O)[C@H](CC(C)(C)C)NC(=O)[C@H](CC(=O)O)NC2=O (some centres unmarked) [I-705]",
    "endpointUnit": "nM",
    "reportedValue": 58
  },
  {
    "molecule": "CC(=O)N1CCC[C@]12CC=CCCCC1(CCCC=CCCCOC(=O)N3CC[C@@](C(=O)N[C@@H](Cc4ccsc4)C(=O)N[C@@H](Cc4csc5ccccc45)C(=O)N[C@@H](CCC(N)=O)C(N)=O)(C3)NC(=O)[C@H](CC(C)C)NC(=O)[C@H](Cc3ccccc3)NC(=O)[C@H](C)NC(=O)[C@H](C)NC(=O)[C@H](CCc3ccc(O)cc3)NC(=O)[C@H](CC(=O)O)NC1=O)NC(=O)[C@H](CC(C)(C)C)NC(=O)[C@H](CC(=O)O)NC2=O (some centres unmarked) [I-1787]",
    "endpointUnit": "nM",
    "reportedValue": 776
  },
  {
    "molecule": "CC(=O)N1CCC[C@]12CC=CCCCC1(CCCC=CCCCOC(=O)N3CC[C@@](C(=O)N[C@@H](Cc4ccsc4)C(=O)N[C@@H](Cc4ccc(Cl)c(Cl)c4)C(=O)N[C@@H](CCC(N)=O)C(N)=O)(C3)NC(=O)[C@H](CC(N)=O)NC(=O)[C@H](Cc3ccccc3)NC(=O)[C@H](C)NC(=O)C(C)(C)NC(=O)[C@H]([C@@H](C)O)NC(=O)[C@H](CC(N)=O)NC1=O)NC(=O)[C@H](CC(C)(C)C)NC(=O)[C@H](CC(=O)O)NC2=O (some centres unmarked) [I-2417]",
    "endpointUnit": "nM",
    "reportedValue": 158
  }
]

----------
- measurementTarget: full-length beta-Catenin (Uniprot ID P35222) (Homo sapiens, UniProt P35222)
- Construct: 10 nM full-length beta-Catenin (Uniprot ID P35222)
- Sequence (P35222 1-781): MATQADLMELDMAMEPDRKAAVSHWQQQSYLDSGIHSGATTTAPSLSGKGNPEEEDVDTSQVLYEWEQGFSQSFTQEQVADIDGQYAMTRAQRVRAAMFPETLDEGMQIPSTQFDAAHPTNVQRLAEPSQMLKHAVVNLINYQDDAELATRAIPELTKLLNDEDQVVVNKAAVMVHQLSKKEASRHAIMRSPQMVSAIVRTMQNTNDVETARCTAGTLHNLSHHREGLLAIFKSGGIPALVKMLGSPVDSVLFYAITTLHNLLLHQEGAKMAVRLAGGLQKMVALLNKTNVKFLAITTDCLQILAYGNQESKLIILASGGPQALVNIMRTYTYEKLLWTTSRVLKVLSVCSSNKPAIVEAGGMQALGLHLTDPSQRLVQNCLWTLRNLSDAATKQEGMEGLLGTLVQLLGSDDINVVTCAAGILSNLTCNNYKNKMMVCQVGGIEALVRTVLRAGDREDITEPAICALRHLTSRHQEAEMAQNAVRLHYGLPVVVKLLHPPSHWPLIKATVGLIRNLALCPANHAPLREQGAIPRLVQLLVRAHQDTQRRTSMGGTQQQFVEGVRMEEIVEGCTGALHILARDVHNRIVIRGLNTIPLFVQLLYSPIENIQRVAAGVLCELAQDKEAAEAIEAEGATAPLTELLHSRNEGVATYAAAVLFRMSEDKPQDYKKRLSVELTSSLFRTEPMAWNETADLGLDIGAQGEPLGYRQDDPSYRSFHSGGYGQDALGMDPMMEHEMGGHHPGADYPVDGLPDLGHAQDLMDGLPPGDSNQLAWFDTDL
- test: Fluorescence polarization IC50 (beta-catenin / 5FAM-TCF4 10-53 competition)
- Type: binding
- testContext: fluorescence polarization, beta-catenin; read-out: FP EC50
recordedMetric: IC50 (µM)

[
  {
    "compound": "CC(=O)N1CCC[C@]12CC=CCCCC1(CCCC=CCCCCCC[C@@](C)(C(=O)N[C@@H](Cc3ccccc3)C(=O)N[C@@H](Cc3c[nH]c4ccccc34)C(=O)N[C@@H](CCC(N)=O)C(N)=O)NC(=O)[C@H](C(C)C)NC(=O)[C@H](Cc3ccccc3)NC(=O)[C@H](C)NC(=O)[C@H](C)NC(=O)[C@H](CC(N)=O)NC(=O)[C@H](CC(=O)O)NC1=O)NC(=O)[C@H](C)NC(=O)[C@H](CC(=O)O)NC2=O (some centres unmarked)",
    "recordedMetric": "IC50",
    "reportedValue": 3.06
  },
  {
    "compound": "CC(=O)N1CCC[C@]12CC=CCCCC1(CCCC=CCCCOC(=O)N3CC[C@@](C(=O)N[C@@H](Cc4ccsc4)C(=O)N[C@@H](Cc4csc5ccccc45)C(=O)N[C@@H](CO)C(N)=O)(C3)NC(=O)[C@H](Cc3ccccc3)NC(=O)[C@H](Cc3ccccc3)NC(=O)[C@H](C)NC(=O)[C@H](C)NC(=O)[C@H](CN(CC(=O)O)CC(F)(F)F)NC(=O)[C@H](CC(=O)O)NC1=O)NC(=O)[C@H](CC(C)(C)C)NC(=O)[C@H](CC(=O)O)NC2=O (some centres unmarked) [I-962]",
    "recordedMetric": "IC50",
    "reportedValue": 0.407
  }
]
